Values were extracted from patent US20140107109A1.

Listed compounds paired with reported IC50
- Experimental system: Cathepsin D (Cat D) (Homo sapiens)
- Construct: Recombinant Cat D was expressed in CHO cells; made in house; host or cells: CHO cells
- Assay protocol: In vitro enzymatic Cathepsin D (Cat D) FRET assay
- Assay type: biochemical
- Protocol conditions: read-out: CatD IC50
Parameter measured: IC50

[[record]]
compound = "Cc1cc(OC(F)F)cnc1C(=O)Nc1ccc(F)c([C@@]2(C)N=C(N)C3(CC3)S(=O)(=O)[C@H]2F)c1"
experimental_system = "Cathepsin D (Cat D) (Homo sapiens)"
parameter_measured = "IC50"
result = "30.2 µM"

[[record]]
compound = "CC1(C)C(N)=N[C@](C)(c2cc(Nc3nccc4cc(C#N)cnc34)ccc2F)CS1(=O)=O"
experimental_system = "Cathepsin D (Cat D) (Homo sapiens)"
parameter_measured = "IC50"
result = "66.7 µM"

[[record]]
compound = "C[C@@]1(c2cc(Br)ccc2F)CS(=O)(=O)C2(CC(O)C2)C(N)=N1 (stereo partly shown)"
experimental_system = "Cathepsin D (Cat D) (Homo sapiens)"
parameter_measured = "IC50"
result = "37.3 µM"

[[record]]
compound = "C[C@@]1(c2cc(Nc3nccc4cc(Cl)cnc34)ccc2F)CS(=O)(=O)C2(CCC2)C(N)=N1"
experimental_system = "Cathepsin D (Cat D) (Homo sapiens)"
parameter_measured = "IC50"
result = "38.8 µM"


###

- Experimental system: Cathepsin D (Cat D) (Homo sapiens)
- Construct: Recombinant Cat D was expressed in CHO cells; made in house; host or cells: CHO cells
- Assay protocol: In vitro enzymatic Cathepsin D (Cat D) FRET assay
- Format: biochemical
- Protocol conditions: read-out: CatD IC50
log10 of IC50 reference
Parameter measured: log10 of IC50 (log10 of the value in µM)

[[record]]
smiles_text = "CCc1cc(Oc2ccc(F)c([C@]3(C)CS(=O)(=O)C(C)(C)C(N)=N3)c2)ccc1Cl"
numeric_readout = 1.25

[[record]]
smiles_text = "Cc1nc2c(Oc3ccc(F)c([C@]4(C)CS(=O)(=O)C(C)(C)C(N)=N4)c3)nccc2s1"
numeric_readout = 2.38

[[record]]
smiles_text = "CC1(C)C(N)=N[C@](C)(c2cc(NC(=O)c3ccc(C#N)cn3)cnc2F)CS1(=O)=O"
numeric_readout = 2.37

[[record]]
smiles_text = "CC1(C)C(N)=N[C@](C)(c2cc(Nc3nncc4cc(Br)cnc34)ccc2F)CS1(=O)=O"
numeric_readout = 2.02

[[record]]
smiles_text = "Cc1c(C(=O)Nc2ccc(F)c([C@]3(CF)CS(=O)(=O)C(C)(C)C(N)=N3)c2)nc2ccc(F)cn12"
numeric_readout = 2.01

[[record]]
smiles_text = "COc1cnc2c(Nc3ccc(F)c([C@@]4(C)N=C(N)C(C)(C)S(=O)(=O)[C@@H]4F)c3)nccc2c1"
numeric_readout = 2.55

[[record]]
smiles_text = "COc1cnc2c(Nc3ccc(F)c([C@]4(C)CS(=O)(=O)C(C)(C)C(N)=N4)c3)nccc2c1"
numeric_readout = 2.60

[[record]]
smiles_text = "CC1(C)C(N)=N[C@](C)(c2cc(Nc3ncc(F)c4cc(Cl)cnc34)cnc2F)CS1(=O)=O"
numeric_readout = 1.18

[[record]]
smiles_text = "CC1(C)C(N)=N[C@](CF)(c2cc(NC(=O)c3cn4cc(Cl)ccc4n3)ccc2F)CS1(=O)=O"
numeric_readout = 2.48

[[record]]
smiles_text = "C[C@@]1(c2cc(NC(=O)c3ccc(Cl)cn3)ccc2F)CS(=O)(=O)C2(CC2)C(N)=N1"
numeric_readout = 1.91

[[record]]
smiles_text = "CC1(C)C(N)=N[C@](CF)(c2cc(NC(=O)c3ccc(C(F)F)cn3)ccc2F)CS1(=O)=O"
numeric_readout = 2.64

[[record]]
smiles_text = "COc1cnc2c(Nc3ccc(F)c([C@@]4(C)N=C(N)C5(CC5)S(=O)(=O)[C@@H]4F)c3)nccc2n1"
numeric_readout = 2.20


###

Recorded IC50 values for a group of molecules are listed next.
- Experimental system: Beta Secretase enzyme (BACE1) (Homo sapiens, UniProt P56817)
- Sequence (P56817 46-501): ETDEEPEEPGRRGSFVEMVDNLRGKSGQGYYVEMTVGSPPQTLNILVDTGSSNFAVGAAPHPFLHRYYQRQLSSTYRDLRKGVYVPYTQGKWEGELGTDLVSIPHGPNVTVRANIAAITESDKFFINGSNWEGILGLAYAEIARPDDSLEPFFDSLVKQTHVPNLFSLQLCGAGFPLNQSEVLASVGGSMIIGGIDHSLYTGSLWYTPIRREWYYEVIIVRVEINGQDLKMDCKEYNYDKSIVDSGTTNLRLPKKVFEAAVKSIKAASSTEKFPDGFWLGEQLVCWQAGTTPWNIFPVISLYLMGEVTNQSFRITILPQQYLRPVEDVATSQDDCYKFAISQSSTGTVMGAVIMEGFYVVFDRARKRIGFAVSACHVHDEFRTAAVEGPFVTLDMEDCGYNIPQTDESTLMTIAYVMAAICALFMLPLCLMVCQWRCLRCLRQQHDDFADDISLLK
- Assay protocol: In vitro enzymatic BACE FRET assay
- Type: biochemical
- Protocol conditions: average IC50, enzyme assay; read-out: BACE1 FRET assay IC50
Parameter measured: IC50 (nM)

[[record]]
molecule = "COc1cnc2c(Nc3ccc(F)c([C@]4(C)CS(=O)(=O)[C@@](C)(F)C(N)=N4)c3)ncnc2c1"
numeric_readout = 2.68

[[record]]
molecule = "C[C@@]1(c2cccc(Br)c2)CS(=O)(=O)C2(CCC2)C(N)=N1"
numeric_readout = 6060

[[record]]
molecule = "CC1(C)C(N)=N[C@](C)(c2cc(Nc3nccc4nc(OCC(F)(F)F)cnc34)ccc2F)CS1(=O)=O"
numeric_readout = 3.22

[[record]]
molecule = "CCOc1cnc2c(Nc3ccc(F)c([C@]4(CF)CS(=O)(=O)C5(CCC5)C(N)=N4)c3)nccc2n1"
numeric_readout = 3.99

[[record]]
molecule = "CC1(C)C(N)=N[C@](C)(c2cc(Oc3ccc(F)cn3)ccc2F)CS1(=O)=O"
numeric_readout = 840

[[record]]
molecule = "CC1(C)C(N)=N[C@](C)(c2cc(Nc3nccc4nc(OCC(F)F)cnc34)ccc2F)CS1(=O)=O"
numeric_readout = 4.54

[[record]]
molecule = "C=Cc1cc(Cl)cnc1C(=O)Nc1ccc(F)c([C@]2(C)CS(=O)(=O)C(C)(C)C(N)=N2)c1"
numeric_readout = 0.59

[[record]]
molecule = "Cc1cccnc1Oc1ccc(F)c([C@]2(C)CS(=O)(=O)C(C)(C)C(N)=N2)c1"
numeric_readout = 650

[[record]]
molecule = "CC#CCOc1cnc(C(=O)Nc2ccc(F)c([C@@]3(C)N=C(N)C(C)(C)S(=O)(=O)C3F)c2)cn1 (stereo partly drawn)"
numeric_readout = 0.23

[[record]]
molecule = "CC1(C)C(N)=N[C@](C)(c2cc(NCc3nn(CC(F)(F)F)cc3Cl)ccc2F)CS1(=O)=O"
numeric_readout = 45.2

[[record]]
molecule = "CC1(C)C(N)=N[C@](C)(c2cc(Oc3ccc(F)c(C(F)(F)F)n3)ccc2F)CS1(=O)=O"
numeric_readout = 769

[[record]]
molecule = "CC1(C)C(N)=N[C@](CF)(c2cc(NC(=O)c3cnc(OCCF)cn3)ccc2F)CS1(=O)=O"
numeric_readout = 0.97

[[record]]
molecule = "C[C@@]1(c2cc(Br)ncc2F)CS(=O)(=O)C2(CCC2)C(N)=N1"
numeric_readout = 17000

[[record]]
molecule = "CC1(C)C(N)=N[C@@]2(c3cc(Nc4nccc5[nH]c(=O)cnc45)ccc3F)COC[C@H]2S1(=O)=O"
numeric_readout = 6.36

[[record]]
molecule = "CC1(C)C(N)=N[C@](C)(c2cc(Oc3ncc(C(N)=O)cc3F)ccc2F)CS1(=O)=O"
numeric_readout = 897


###

Entries annotated with measured pIC50
- Experimental system: Cathepsin D (Cat D) (Homo sapiens, UniProt P07339)
- Construct: Recombinant Cat D was expressed in CHO cells; made in house; host or cells: CHO cells
- Sequence (P07339 65-412, species assumed): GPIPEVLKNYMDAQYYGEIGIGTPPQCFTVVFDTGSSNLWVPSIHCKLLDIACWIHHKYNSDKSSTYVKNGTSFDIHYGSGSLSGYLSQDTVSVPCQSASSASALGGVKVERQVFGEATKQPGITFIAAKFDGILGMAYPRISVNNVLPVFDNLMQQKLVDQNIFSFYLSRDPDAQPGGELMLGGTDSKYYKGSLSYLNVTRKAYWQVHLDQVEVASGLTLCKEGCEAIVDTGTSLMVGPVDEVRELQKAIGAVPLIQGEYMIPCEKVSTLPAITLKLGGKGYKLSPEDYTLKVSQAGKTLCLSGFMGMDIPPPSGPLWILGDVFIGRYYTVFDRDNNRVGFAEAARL
- Assay protocol: In vitro enzymatic Cathepsin D (Cat D) FRET assay
- Format: biochemical
- Protocol conditions: read-out: CatD IC50
pIC50: −log10 of the molar value.
Parameter measured: pIC50

[[record]]
smiles_text = "COc1cnc(C(=O)Nc2ccc(F)c([C@]3(C)CS(=O)(=O)CC(N)=N3)c2)cn1"
numeric_readout = 4.29

[[record]]
smiles_text = "COc1cnc2c(Nc3cnc(F)c([C@]4(C)CS(=O)(=O)C(C)(C)C(N)=N4)c3)ncc(F)c2c1"
numeric_readout = 4.40

[[record]]
smiles_text = "Cc1cc(OC(F)F)cnc1C(=O)Nc1ccc(F)c([C@@]2(C)N=C(N)C3(CC3)S(=O)(=O)[C@@H]2F)c1"
numeric_readout = 4.01

[[record]]
smiles_text = "COc1cc(Cl)ccc1C(=O)Nc1ccc(F)c([C@]2(C)CS(=O)(=O)C(C)(C)C(N)=N2)c1"
numeric_readout = 4.12


###

- Experimental system: Cathepsin D (Cat D) (Homo sapiens)
- Construct: Recombinant Cat D was expressed in CHO cells; made in house; host or cells: CHO cells
- Assay protocol: In vitro enzymatic Cathepsin D (Cat D) FRET assay
- Format: biochemical
- Protocol conditions: read-out: CatD IC50
Parameter measured: IC50

[[record]]
compound = "COc1cnc2c(Nc3ccc(F)c([C@]4(C)CS(=O)(=O)C5(CC(F)(F)C5)C(N)=N4)c3)nccc2n1 [Example 128]"
experimental_system = "Cathepsin D (Cat D) (Homo sapiens)"
result = "330 µM"

[[record]]
compound = "Cc1cc(Cl)cnc1C(=O)Nc1cnc(F)c([C@]2(C)CS(=O)(=O)C(C)(C)C(N)=N2)c1 [Example 347]"
experimental_system = "Cathepsin D (Cat D) (Homo sapiens)"
result = "71 µM"

[[record]]
compound = "COc1cnc2c(Nc3ccc(F)c([C@]4(C(F)F)CS(=O)(=O)C(C)(C)C(N)=N4)c3)nccc2c1 [Example 67]"
experimental_system = "Cathepsin D (Cat D) (Homo sapiens)"
result = "> 400 µM"

[[record]]
compound = "CC1(C)C(N)=N[C@](C)(c2cc(Nc3ncnc4cc(Cl)cnc34)ccc2F)C(F)S1(=O)=O (stereo partly shown) [Example 228]"
experimental_system = "Cathepsin D (Cat D) (Homo sapiens)"
result = "58.9 µM"

[[record]]
compound = "CC1(C)C(N)=N[C@](C)(c2cc(NCc3nn(CC(F)(F)F)cc3Cl)ccc2F)CS1(=O)=O [Example 108]"
experimental_system = "Cathepsin D (Cat D) (Homo sapiens)"
result = "49.8 µM"

[[record]]
compound = "CC1(C)C(N)=N[C@](C)(c2cc(Oc3cc(N)nc(N)n3)ccc2F)CS1(=O)=O [Example 268]"
experimental_system = "Cathepsin D (Cat D) (Homo sapiens)"
result = "920 µM"

[[record]]
compound = "Cc1cc(OC(F)F)cnc1C(=O)Nc1ccc(F)c([C@@]2(C)N=C(N)C(C)(C)S(=O)(=O)C23CC3)c1 [Example 341]"
experimental_system = "Cathepsin D (Cat D) (Homo sapiens)"
result = "9.4 µM"

